Reference for the values: PubChem BioAssay AID2060605

test system: 947758-054-R-J2-PDC spheroid growth, percent test/control; test: Anticancer human tumor 947758-054-R-J2-PDC patient-derived colon adenocarcinoma cell line growth inhibition [CLK]; details: second compound 10 µM; first compound 0.1 µM; active compounds read low; spheroids with HUVEC and MSC;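 note: spheroids exposed to compounds for one week before readout; 100% = DMSO vehicle control wells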
Parameter: viability, T/C. Scope: all listed entries.
PARAMETER: viability, T/C

{"columns": ["MOLECULE", "TARGET OF ASSAY", "VALUE"],
 "data": [
  ["Nc1ccn(C2OC(CO)C(O)C2(F)F)c(=O)n1 (stereo not drawn) + CN1CCN(c2cc(C(=O)Nc3cc4cc(-c5cnn(C)c5)ccc4cn3)ccn2)CC1", "947758-054-R-J2-PDC spheroid growth, percent test/control", "0.28%"],
  ["COC1C=CCC(C)C(C)S(=O)(=O)NC(=O)c2ccc3c(c2)N(CC2CCC21)CC1(CCCc2cc(Cl)ccc21)CO3 (stereo not drawn) + CNC(=O)c1ccc(Nc2nc(OC3CCCC3)c3c(-c4ccc5nc(C)oc5c4)c[nH]c3n2)c(OC)c1", "947758-054-R-J2-PDC spheroid growth, percent test/control", "23.3%"],
  ["CC(CO)NC(=O)c1cc(-c2ccc(Cl)cc2)nn(-c2cnn(C)c2)c1=O (stereo not drawn) + CN1CCN(c2cc(C(=O)Nc3cc4cc(-c5cnn(C)c5)ccc4cn3)ccn2)CC1", "947758-054-R-J2-PDC spheroid growth, percent test/control", "0.42%"],
  ["CC1COCCN1c1cc(C2(S(C)(=N)=O)CC2)nc(-c2ccnc3[nH]ccc23)n1 (stereo not drawn) + CNC(=O)c1ccc(Nc2nc(OC3CCCC3)c3c(-c4ccc5nc(C)oc5c4)c[nH]c3n2)c(OC)c1", "947758-054-R-J2-PDC spheroid growth, percent test/control", "44.7%"],
  ["C=C(F)C(=O)N1CCN(c2nc(OCC3CCCN3C)nc3c2CCN(c2cccc4cccc(Cl)c24)C3)CC1CC#N (stereo not drawn) + CN1CCN(c2cc(C(=O)Nc3cc4cc(-c5cnn(C)c5)ccc4cn3)ccn2)CC1", "947758-054-R-J2-PDC spheroid growth, percent test/control", "1.69%"],
  ["CC(=O)O[C@H]1C(=O)[C@@]2(C)[C@H]([C@H](OC(=O)c3ccccc3)[C@]3(O)C[C@H](OC(=O)[C@H](O)[C@@H](NC(=O)c4ccccc4)c4ccccc4)C(C)=C1C3(C)C)[C@]1(OC(C)=O)CO[C@@H]1C[C@@H]2O + CN1CCN(c2cc(C(=O)Nc3cc4cc(-c5cnn(C)c5)ccc4cn3)ccn2)CC1", "947758-054-R-J2-PDC spheroid growth, percent test/control", "0.29%"],
  ["Nc1ccn(C2OC(CO)C(O)C2(F)F)c(=O)n1 (stereo not drawn) + CNC(=O)c1ccc(Nc2nc(OC3CCCC3)c3c(-c4ccc5nc(C)oc5c4)c[nH]c3n2)c(OC)c1", "947758-054-R-J2-PDC spheroid growth, percent test/control", "9.83%"],
  ["Nc1ccccc1NC(=O)c1ccc(CNC(=O)OCc2cccnc2)cc1 + CN1CCN(c2cc(C(=O)Nc3cc4cc(-c5cnn(C)c5)ccc4cn3)ccn2)CC1", "947758-054-R-J2-PDC spheroid growth, percent test/control", "0.32%"],
  ["O=c1[nH]cc(F)c(=O)[nH]1 + CNC(=O)c1ccc(Nc2nc(OC3CCCC3)c3c(-c4ccc5nc(C)oc5c4)c[nH]c3n2)c(OC)c1", "947758-054-R-J2-PDC spheroid growth, percent test/control", "24.6%"],
  ["COC1C=CCC(C)C(C)S(=O)(=O)NC(=O)c2ccc3c(c2)N(CC2CCC21)CC1(CCCc2cc(Cl)ccc21)CO3 (stereo not drawn) + CN1CCN(c2cc(C(=O)Nc3cc4cc(-c5cnn(C)c5)ccc4cn3)ccn2)CC1", "947758-054-R-J2-PDC spheroid growth, percent test/control", "3.23%"],
  ["COc1c(OCCCN2CCOCC2)ccc2c3n(c(=NC(=O)c4cnc(N)nc4)nc12)CCN3 + CN1CCN(c2cc(C(=O)Nc3cc4cc(-c5cnn(C)c5)ccc4cn3)ccn2)CC1", "947758-054-R-J2-PDC spheroid growth, percent test/control", "0.27%"],
  ["C#Cc1c(F)ccc2cc(O)cc(-c3ncc4c(N5CC6CCC(C5)N6)nc(OCC56CCCN5CC(F)C6)nc4c3F)c12 (stereo not drawn) + CN1CCN(c2cc(C(=O)Nc3cc4cc(-c5cnn(C)c5)ccc4cn3)ccn2)CC1", "947758-054-R-J2-PDC spheroid growth, percent test/control", "0.42%"],
  ["CC(Nc1ccc2c(c1)OCCn1cc(N3C(=O)OCC3C(F)F)nc1-2)C(N)=O (stereo not drawn) + CN1CCN(c2cc(C(=O)Nc3cc4cc(-c5cnn(C)c5)ccc4cn3)ccn2)CC1", "947758-054-R-J2-PDC spheroid growth, percent test/control", "0.5%"],
  ["O=C(c1cc(Cc2n[nH]c(=O)c3ccccc23)ccc1F)N1CCN(C(=O)C2CC2)CC1 + CN1CCN(c2cc(C(=O)Nc3cc4cc(-c5cnn(C)c5)ccc4cn3)ccn2)CC1", "947758-054-R-J2-PDC spheroid growth, percent test/control", "0.36%"],
  ["C=C(F)C(=O)N1CCN(c2nc(OCC3CCCN3C)nc3c2CCN(c2cccc4cccc(Cl)c24)C3)CC1CC#N (stereo not drawn) + CNC(=O)c1ccc(Nc2nc(OC3CCCC3)c3c(-c4ccc5nc(C)oc5c4)c[nH]c3n2)c(OC)c1", "947758-054-R-J2-PDC spheroid growth, percent test/control", "33.3%"],
  ["CCc1c2c(nc3ccc(O)cc13)-c1cc3c(c(=O)n1C2)COC(=O)[C@]3(O)CC + CN1CCN(c2cc(C(=O)Nc3cc4cc(-c5cnn(C)c5)ccc4cn3)ccn2)CC1", "947758-054-R-J2-PDC spheroid growth, percent test/control", "1.24%"],
  ["CC(CO)NC(=O)c1cc(-c2ccc(Cl)cc2)nn(-c2cnn(C)c2)c1=O (stereo not drawn) + CNC(=O)c1ccc(Nc2nc(OC3CCCC3)c3c(-c4ccc5nc(C)oc5c4)c[nH]c3n2)c(OC)c1", "947758-054-R-J2-PDC spheroid growth, percent test/control", "44.2%"],
  ["Nc1ccccc1NC(=O)c1ccc(CNC(=O)OCc2cccnc2)cc1 + CNC(=O)c1ccc(Nc2nc(OC3CCCC3)c3c(-c4ccc5nc(C)oc5c4)c[nH]c3n2)c(OC)c1", "947758-054-R-J2-PDC spheroid growth, percent test/control", "26.8%"]
]}
